Reference source: paper PMC10397247

system_under_test: T1, 4H3709-AA
T1 chain: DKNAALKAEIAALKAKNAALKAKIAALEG
assay_procedure: two-hybrid library CCmax;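 also: natural log of median RNA to DNA barcode read ratio; higher means stronger binding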
test_context: mean of both orientations
endpoint_label: interaction score

binder | interaction score
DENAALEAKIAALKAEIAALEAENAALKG [4H1348-AA] | -1.57
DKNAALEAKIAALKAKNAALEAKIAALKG [4H3446-AA] | -0.0647
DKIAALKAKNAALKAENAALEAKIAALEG [4H3029-AA] | -1.34
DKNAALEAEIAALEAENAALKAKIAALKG [4H3102-AA] | 1.43
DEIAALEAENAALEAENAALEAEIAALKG [4H146-AA] | -0.0632

Given item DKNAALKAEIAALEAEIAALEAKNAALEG [4H3591-AA] , the value recorded as its interaction score is -0.696

Quick note, interaction score for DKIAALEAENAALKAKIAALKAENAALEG [4H2283-AA] landed at -1.11
